# TEST TARGET: hVR1 (Homo sapiens)
# Construct: expressed in transfected cells
# Sequence (Q8NER1 whole entry): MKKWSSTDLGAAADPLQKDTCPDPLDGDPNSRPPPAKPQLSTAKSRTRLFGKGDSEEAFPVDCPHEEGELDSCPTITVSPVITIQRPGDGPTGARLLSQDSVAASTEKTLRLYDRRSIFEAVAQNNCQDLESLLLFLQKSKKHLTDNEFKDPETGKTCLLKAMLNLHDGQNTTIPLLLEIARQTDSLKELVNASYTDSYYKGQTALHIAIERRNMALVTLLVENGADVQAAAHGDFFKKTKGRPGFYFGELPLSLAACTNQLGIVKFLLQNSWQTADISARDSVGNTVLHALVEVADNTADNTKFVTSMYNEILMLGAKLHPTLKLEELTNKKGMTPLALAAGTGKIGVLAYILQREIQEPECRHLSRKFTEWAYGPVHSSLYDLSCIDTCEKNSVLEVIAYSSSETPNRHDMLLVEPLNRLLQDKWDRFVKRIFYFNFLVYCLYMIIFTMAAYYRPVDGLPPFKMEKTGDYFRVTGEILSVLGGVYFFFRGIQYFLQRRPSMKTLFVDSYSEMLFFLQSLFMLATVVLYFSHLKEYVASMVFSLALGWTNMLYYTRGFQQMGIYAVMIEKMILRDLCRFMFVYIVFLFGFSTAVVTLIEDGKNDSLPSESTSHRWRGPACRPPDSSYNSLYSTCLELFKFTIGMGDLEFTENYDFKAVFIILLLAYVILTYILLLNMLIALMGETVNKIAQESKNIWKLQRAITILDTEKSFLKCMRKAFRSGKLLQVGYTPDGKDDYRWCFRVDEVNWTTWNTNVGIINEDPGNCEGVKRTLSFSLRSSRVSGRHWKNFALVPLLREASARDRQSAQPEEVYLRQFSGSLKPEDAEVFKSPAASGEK
# PROTOCOL NOTES: hVR1 FLIPR (Fluorometric Image Plate Reader) screening assay, IC50 determination
# Format: cell-based
# MEASUREMENT SETUP: agonist capsaicin, inhibition of increase in intracellular calcium
PROPERTY LABEL: IC50 (nM)

{"COMPOUND": "Cc1nc2cc(C(=O)NCc3ccc(C(F)(F)F)cc3)ccc2s1", "TEST TARGET": "hVR1 (Homo sapiens)", "IC50 (nM)": 2780}

(P) Cc1nc2cc(C(=O)Nc3ccc(C(C)(C)C)cc3)ccc2s1
(Q) Cc1nc2cc(C(=O)NCc3cccc(C(F)(F)F)c3)ccc2s1
Looking at P and Q , which one comes out lower in IC50 terms? Use the label to indicate which entry you chose. P

Data provenance: patent US20080108676A1
